Taken from paper PMC11125357.

Test method notes: Hemolytic test
Format: cell-based
Particulars: human red blood cells (erythrocytes), pH 7.2; concentration causing 50% hemolysis of human red blood cells, mean ± SD
Reported endpoint: IC50
Please don't drop the unit; write it after the number.

IN: Respond only with IC50 recorded for COc1ccc2cc3[n+](cc2c1OC)CCc1cc2c(cc1-3)OCO2 [BER]
OUT: 713 mg/L
